// provenance: paper PMC12518634

test system: 1405R3; test: High-throughput drug screen, CellTiter-Glo viability, 72 h; type: cell-based, human; settings: Homo sapiens; 1405R3 DSRT analysis; fitted dose-response curve; Min.Conc.tested 1, Max.Conc.tested 10000; CellTiter-Glo, 72 h; read-out: EC50
Give pEC50 for every item shown.
One number for each entry, as −log10 of the molar value.

As a guide, the following entries are already answered.
>>> value_reported("CN1CCN(c2ccc3nc(-c4c(N)c5c(F)cccc5[nH]c4=O)[nH]c3c2)CC1 [Dovitinib]")
5.54
>>> value_reported("COc1cc2c(Oc3ccc(NC(=O)C4(C(=O)Nc5ccc(F)cc5)CC4)cc3F)ccnc2cc1OCCCN1CCOCC1 [Foretinib]")
5.57
>>> value_reported("Cc1cn(CCN2CCN(c3ccccc3-c3cc(C#N)cc(C(=O)NCCCN4CCCC4)c3)CC2)c2ccccc12 [LLY-507]")
5.50
>>> value_reported("O=C(NO)c1cnc(NC2(c3ccccc3)CC2)nc1 [ACY-738]")
5.59

Provide the reported pEC50 of each entry below, same order.
1. Cc1noc2c1-c1ccccc1C(c1ccc(Cl)cc1)=N[C@H]2CC(N)=O [CPI-0610]
2. CN(C)Cc1c(C(=O)NCCOc2ccc(C(=O)NO)cc2)oc2ccccc12 [Abexinostat]

[6.25, 5.62]

Provide the reported pEC50 of each entry below, same order.
1. Nc1ccn([C@@H]2O[C@H](CO)[C@@H](O)C2(F)F)c(=O)n1 [Gemcitabine]
2. COc1cccc2c1C(=O)c1c(O)c3c(c(O)c1C2=O)C[C@@](O)(C(=O)CO)C[C@@H]3O[C@H]1C[C@H](N)[C@@H](O)[C@H](C)O1 [Epirubicin]
3. C#Cc1cccc(Nc2ncnc3cc(OC)c(OCCCCCCC(=O)NO)cc23)c1 [CUDC-101]
4. COc1cc2nc(N3CCCN(C)CC3)nc(NC3CCN(Cc4ccccc4)CC3)c2cc1OC [BIX 01294]
5. CC[C@@H]1C(=O)N(C)c2cnc(Nc3ccc(C(=O)NC4CCN(C)CC4)cc3OC)nc2N1C1CCCC1 [BI 2536]

[7.58, 5.88, 5.88, 5.47, 6.05]

Could you tell me which pEC50 is on file for COc1cc2c(Oc3ccc4[nH]c(C)cc4c3F)ncnc2cc1OCCCN1CCCC1 [Cediranib] ?
5.55

====

tested on: 1405R3; assay: High-throughput drug screen, CellTiter-Glo viability, 72 h; assay type: cell-based, human; conditions: 1405R3 DSRT analysis; slope of fitted dose-response curve
measured_attribute: SLOPE
Numbers only.

>>> value_reported("O=C(O)CCCc1ccccc1")
-0.7
>>> value_reported("Cn1cc(-c2ccc(S(=O)(=O)n3ccc(/C=C/C(=O)Nc4ccccc4N)c3)cc2)cn1")
-2.3
>>> value_reported("Cn1c(/C=C/C(=O)NO)ccc1/C=C/C(=O)c1cccc(F)c1")
-0.6
>>> value_reported("COc1ccc(Cn2ccc3ccc(C(=O)NO)cc32)cc1")
-0.1
>>> value_reported("Cl.Cn1cc(C(=O)Nc2ccc([C@@H]3C[C@H]3NCC3CC3)cc2)cn1 [T-3775440 HCl]")
-2.5
>>> value_reported("N#Cc1c(-c2ccccc2)cc(-c2cc(Br)ccc2O)[nH]c1=O")
-0.4

Provide the reported SLOPE of each entry below, same order.
1. O=C(NNc1ccccn1)c1ccccn1
2. CCCOc1ccc(/C=C2\SC(=O)NC2=O)cc1 [SMI-16a]
3. O=C(Nc1ccc(O)c(C(=O)O)c1)c1cccc(NC(=O)c2ccco2)c1
4. CCCCCCCCCCCCCCCCNNC(=O)c1cccs1

1: -0.2; 2: -0.1; 3: -0.1; 4: -0.1
